All values here come from ChEMBL document CHEMBL1158511.

assayed_system: CYP1A2 (Homo sapiens)
test_details: Inhibition of CYP1A2 at 10 uM
Format: ADME
reported_endpoint: inhibition at 10 µM

What inhibition at 10 µM value was documented for this molecule, Cc1cccc2c1C(=O)NC1CNCCN21 (single isomer, unassigned; (+)) ? > 50%

* * *

assayed_system: 5-hydroxytryptamine receptor 2B (Homo sapiens)
Sequence (P41595 whole entry): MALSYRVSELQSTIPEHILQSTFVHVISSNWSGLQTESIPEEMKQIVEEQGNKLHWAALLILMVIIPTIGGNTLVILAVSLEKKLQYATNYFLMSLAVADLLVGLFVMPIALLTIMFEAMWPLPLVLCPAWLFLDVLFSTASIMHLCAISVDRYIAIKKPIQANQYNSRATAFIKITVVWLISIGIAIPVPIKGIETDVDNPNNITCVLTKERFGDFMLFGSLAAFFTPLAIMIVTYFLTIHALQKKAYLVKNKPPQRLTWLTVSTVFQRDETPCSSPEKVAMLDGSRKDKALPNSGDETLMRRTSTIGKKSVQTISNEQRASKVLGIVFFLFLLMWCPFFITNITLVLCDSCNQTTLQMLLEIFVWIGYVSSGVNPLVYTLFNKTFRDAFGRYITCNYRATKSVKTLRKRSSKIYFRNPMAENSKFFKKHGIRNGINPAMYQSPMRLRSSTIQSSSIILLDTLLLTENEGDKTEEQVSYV
test_details: Displacement of [3H]LSD from human recombinant 5HT2B receptor expressed in HEK293E cells
reported_endpoint: log10 of Ki (log10 of the value in nM)
// units: nM (pre-log); metric: Ki; scale: log10

These solved cases illustrate the format of a correct answer.
INSERT INTO results (molecule, observed_measurement) VALUES
  ('O=C1NC2CNCCN2c2ccccc21 (single isomer, unassigned)', 2.14),
  ('Cc1ccc2c(c1)N1CCNCC1NC2=O (single isomer, unassigned)', 2.45),
  ('Cc1ccc2c(c1)N1CCNCCC1NC2=O (stereo in doubt; (+)-3c)', 1.61),
  ('O=C1NC2CCNCCN2c2ccccc21 (single isomer, unassigned)', 1.83),
  ('Cc1cccc2c1C(=O)NC1CCNCCN21 (stereo not given)', 1.00);

Please go through the list and note log10 of Ki for each molecule.
1. Cc1cccc2c1C(=O)NC1CNCCN21 (stereo in doubt; (-)-2a)
2. Cc1ccc2c(c1)N1CCNCCC1NC2=O (stereo in doubt; (-)-3c)
3. O=C1NC2CCNCCN2c2cccc(Cl)c21 (single isomer, unassigned)
4. O=C1NC2CNCCCN2c2cccc(Cl)c21 (racemic)
5. O=C1NC2CNCCN2c2ccc(Cl)cc21 (single isomer, unassigned)

1: 2.31; 2: 1.71; 3: 1.36; 4: 2.87; 5: 1.86

* * *

assayed_system: Cytochrome P450 2C19 (Homo sapiens, UniProt P33261)
Sequence (P33261 whole entry): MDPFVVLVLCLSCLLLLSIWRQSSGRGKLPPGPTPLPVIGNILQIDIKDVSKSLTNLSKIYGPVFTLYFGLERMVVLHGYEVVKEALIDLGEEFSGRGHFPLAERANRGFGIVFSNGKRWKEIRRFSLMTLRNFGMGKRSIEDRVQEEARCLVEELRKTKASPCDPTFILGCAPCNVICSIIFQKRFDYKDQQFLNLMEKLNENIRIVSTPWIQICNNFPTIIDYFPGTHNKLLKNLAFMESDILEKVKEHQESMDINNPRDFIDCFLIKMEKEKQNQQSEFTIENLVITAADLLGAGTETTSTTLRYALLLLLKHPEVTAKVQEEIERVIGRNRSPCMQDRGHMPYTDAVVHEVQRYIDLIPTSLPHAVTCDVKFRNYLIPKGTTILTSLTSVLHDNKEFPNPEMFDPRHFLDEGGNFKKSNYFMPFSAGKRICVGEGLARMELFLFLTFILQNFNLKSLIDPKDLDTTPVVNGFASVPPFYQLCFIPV
reported_endpoint: IC50

Recorded IC50 of Cc1cccc2c1C(=O)NC1CNCCN21 (single isomer, unassigned; (+)) , please. > 40 µM

* * *

assayed_system: 5-hydroxytryptamine receptor 2A (Homo sapiens, UniProt P28223)
Sequence (P28223 whole entry): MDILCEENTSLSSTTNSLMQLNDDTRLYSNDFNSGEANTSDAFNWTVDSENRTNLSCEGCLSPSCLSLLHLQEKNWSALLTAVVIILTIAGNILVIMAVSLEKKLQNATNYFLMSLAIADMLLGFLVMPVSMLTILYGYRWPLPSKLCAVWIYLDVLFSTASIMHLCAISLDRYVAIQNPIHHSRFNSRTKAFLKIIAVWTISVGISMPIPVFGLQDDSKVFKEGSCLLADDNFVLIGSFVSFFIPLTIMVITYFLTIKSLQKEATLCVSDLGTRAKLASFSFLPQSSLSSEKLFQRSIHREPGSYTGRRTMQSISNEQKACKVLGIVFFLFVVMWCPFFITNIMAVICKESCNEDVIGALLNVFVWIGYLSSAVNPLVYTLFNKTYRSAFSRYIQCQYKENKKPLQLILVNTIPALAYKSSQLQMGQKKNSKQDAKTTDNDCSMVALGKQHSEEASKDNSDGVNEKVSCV
test_details: Intrinsic activity at human recombinant 5HT2A receptor expressed in HEK293E cells by FLIPR assay at 3 uM relative to control
Type: cell-based
For each entry below, report its Intrinsic activity value.
Numbers only.

INSERT INTO measurements (compound, assayed_system, observed_measurement) VALUES
  ('Cc1ccc2c(c1)N1CCNCC1NC2=O (single isomer, unassigned)', '5-hydroxytryptamine receptor 2A (Homo sapiens, UniProt P28223)', 0.26);

List the reported Intrinsic activity of each compound below.
1. Cc1cccc2c1C(=O)NC1CCNCCN21 (stereo unspecified)
2. Cc1ccc2c(c1)N1CCNCCC1NC2=O (stereo in doubt; (+)-3c)
3. O=C1NC2CNCCN2c2cccc(Cl)c21 (stereo unspecified)
4. O=C1NC2CCNCCN2c2cccc(Cl)c21 (single isomer, unassigned)
5. Clc1cccc(N2CCNCC2)c1
6. O=C1NC2CCNCCN2c2ccccc21 (single isomer, unassigned)
7. Cc1cccc2c1N1CCNCC1NC2=O (stereo unspecified)

1: 1; 2: 0.28; 3: 0; 4: 0.8; 5: 0.3; 6: 1; 7: 0

Look up Intrinsic activity for the entries below, preserving their order.
1. Cc1cccc2c1C(=O)NC1CNCCN21 (single isomer, unassigned; (+))
2. Cc1ccc2c(c1)N1CCNCCC1NC2=O (stereo in doubt; (-)-3c)
3. Cc1ccc2c(c1)C(=O)NC1CNCCN21 (single isomer, unassigned)

[0, 0.11, 0.34]

* * *

test_details: Clearance in Sprague-Dawley rat at 1 mg/kg, iv
Format: ADME, organism-based
Design: dose 1 mg/kg, route intravenous
condition_parameters: in vivo
reported_endpoint: clearance (mL/min/kg)
One number for each entry, in mL/min/kg.

clearance for Cc1cccc2c1C(=O)NC1CNCCN21 (single isomer, unassigned; (+)) ? 27

* * *

assayed_system: 5-hydroxytryptamine receptor 2A (Homo sapiens)
test_details: Displacement of [125I]DOI from human recombinant 5HT2A receptor expressed in HEK293E cells
reported_endpoint: pKi
Give bare numbers, as −log10 of the molar value.

See these solved cases before continuing.
INSERT INTO assay_data (compound, observed_measurement) VALUES
  ('Cc1ccc2c(c1)N1CCNCC1NC2=O (single isomer, unassigned)', 6.22),
  ('O=C1NC2CNCCN2c2cccc(Cl)c21 (stereo unspecified)', 6.48),
  ('O=C1NC2CNCCCN2c2cccc(Cl)c21 (racemic)', 4.87),
  ('O=C1NC2CNCCN2c2cccc(C(F)(F)F)c21 (single isomer, unassigned)', 6.74),
  ('O=C1NC2CCNCCN2c2ccccc21 (single isomer, unassigned)', 6.57),
  ('O=C1NC2CNCCN2c2ccccc21 (single isomer, unassigned)', 5.70);

Provide each entry's pKi from the list below.
1. Cc1ccc2c(c1)C(=O)NC1CNCCN21 (single isomer, unassigned)
2. Cc1cccc2c1C(=O)NC1CCNCCN21 (stereo unspecified)
3. Cc1cccc2c1C(=O)NC1CNCCN21 (stereo in doubt; (-)-2a)

[5.91, 6.85, 5.35]

* * *

test_details: Volume of distribution at steady state in Sprague-Dawley rat at 1 mg/kg, iv
Type: ADME, organism-based
Parameters: dose 1 mg/kg, route intravenous
condition_parameters: in vivo, read-out: Vdss
reported_endpoint: Vd (L/kg)
Numbers only, in L/kg.

Return reported Vd; argument: Cc1cccc2c1C(=O)NC1CNCCN21 (single isomer, unassigned; (+)) 1.3

* * *

assayed_system: 5-hydroxytryptamine receptor 2C (Homo sapiens)
Sequence (P28335 whole entry): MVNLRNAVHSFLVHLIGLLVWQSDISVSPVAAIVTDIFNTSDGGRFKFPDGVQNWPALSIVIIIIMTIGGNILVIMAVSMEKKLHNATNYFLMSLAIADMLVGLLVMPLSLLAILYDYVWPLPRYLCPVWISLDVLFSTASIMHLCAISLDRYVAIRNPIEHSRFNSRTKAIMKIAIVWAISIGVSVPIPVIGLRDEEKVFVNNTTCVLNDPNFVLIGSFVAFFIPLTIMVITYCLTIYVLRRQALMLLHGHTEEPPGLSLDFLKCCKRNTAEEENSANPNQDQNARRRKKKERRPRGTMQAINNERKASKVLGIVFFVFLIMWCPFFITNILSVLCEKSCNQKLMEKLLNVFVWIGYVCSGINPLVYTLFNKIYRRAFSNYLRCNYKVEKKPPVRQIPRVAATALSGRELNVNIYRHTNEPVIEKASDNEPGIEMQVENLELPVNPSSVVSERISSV
test_details: Agonist activity at human recombinant 5HT2C receptor expressed in HEK293E cells by FLIPR assay
pEC50: −log10 of the molar value.
Response key: t means pEC50 >= 7; f means pEC50 < 7.

INSERT INTO measurements (compound, qualitative_label) VALUES
  ('Cc1cccc2c1C(=O)NC1CCNCCN21 (stereo not given)', 't'),
  ('O=C1NC2CNCCN2c2cccc(Cl)c21 (stereo not given)', 't'),
  ('Cc1ccc2c(c1)N1CCNCCC1NC2=O (stereo in doubt; (+)-3c)', 't'),
  ('Cc1cccc2c1C(=O)NC1CNCCN21 (single isomer, unassigned; (+))', 't'),
  ('Cc1cccc2c1C(=O)NC1CNCCN21 (stereo in doubt; (-)-2a)', 'f');

Is it the case that O=C1NC2CCNCCN2c2ccccc21 (single isomer, unassigned) has pEC50 reaching or exceeding 7? t

Is pEC50 for Cc1ccc2c(c1)N1CCNCC1NC2=O (single isomer, unassigned) at or above 7? t

Exam item: decide whether the reported pEC50 for O=C1NC2CCNCCN2c2cccc(Cl)c21 (single isomer, unassigned) is at least 7. t

Hi team, for O=C1NC2CNCCN2c2c(Cl)cccc21 (stereo not given) , is the recorded pEC50 at or above 7? f

# check: pEC50 of Cc1cccc2c1N1CCNCC1NC2=O (stereo not given) is greater than or equal to 7 f

* * *

assayed_system: CYP3A4 (Homo sapiens, UniProt P08684)
Sequence (P08684 whole entry): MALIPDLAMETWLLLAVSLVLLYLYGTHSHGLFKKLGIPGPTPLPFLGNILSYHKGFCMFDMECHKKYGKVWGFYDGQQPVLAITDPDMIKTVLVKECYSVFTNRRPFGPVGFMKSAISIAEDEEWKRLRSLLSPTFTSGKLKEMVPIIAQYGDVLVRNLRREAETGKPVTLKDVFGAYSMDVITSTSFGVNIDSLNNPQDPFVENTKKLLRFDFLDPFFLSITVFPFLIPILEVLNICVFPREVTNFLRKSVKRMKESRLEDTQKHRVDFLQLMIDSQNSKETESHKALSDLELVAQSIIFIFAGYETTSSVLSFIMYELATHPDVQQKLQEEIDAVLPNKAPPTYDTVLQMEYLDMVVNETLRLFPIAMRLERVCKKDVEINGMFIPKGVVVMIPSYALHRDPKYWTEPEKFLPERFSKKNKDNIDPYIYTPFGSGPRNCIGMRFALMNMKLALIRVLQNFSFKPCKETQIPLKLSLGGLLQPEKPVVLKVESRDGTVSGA
test_details: Inhibition of CYP3A4 at 10 uM
Assay type: ADME
reported_endpoint: inhibition at 10 µM

// lookup inhibition at 10 µM for Cc1cccc2c1C(=O)NC1CNCCN21 (single isomer, unassigned; (+)) > 50%

* * *

assayed_system: CYP2D6 (Homo sapiens)
Sequence (P10635 whole entry): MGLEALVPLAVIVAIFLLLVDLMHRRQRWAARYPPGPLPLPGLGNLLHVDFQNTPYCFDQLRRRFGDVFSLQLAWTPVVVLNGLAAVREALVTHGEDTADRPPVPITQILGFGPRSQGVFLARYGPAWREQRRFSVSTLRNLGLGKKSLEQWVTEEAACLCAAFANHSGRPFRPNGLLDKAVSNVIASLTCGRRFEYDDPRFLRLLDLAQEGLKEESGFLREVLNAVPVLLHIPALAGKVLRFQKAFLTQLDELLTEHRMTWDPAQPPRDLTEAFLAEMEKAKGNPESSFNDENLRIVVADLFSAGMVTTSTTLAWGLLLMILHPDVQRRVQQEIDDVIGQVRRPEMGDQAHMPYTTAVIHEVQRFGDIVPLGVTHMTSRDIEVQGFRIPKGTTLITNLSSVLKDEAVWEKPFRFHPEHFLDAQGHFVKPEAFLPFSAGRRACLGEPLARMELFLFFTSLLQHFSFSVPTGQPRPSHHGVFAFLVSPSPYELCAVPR
test_details: Inhibition of CYP2D6 at 10 uM
Format: ADME
reported_endpoint: inhibition at 10 µM

For the compound Cc1cccc2c1C(=O)NC1CNCCN21 (single isomer, unassigned; (+)) , what inhibition at 10 µM is on record? > 50%

* * *

assayed_system: Cytochrome P450 1A2 (Homo sapiens)
Sequence (P05177 whole entry): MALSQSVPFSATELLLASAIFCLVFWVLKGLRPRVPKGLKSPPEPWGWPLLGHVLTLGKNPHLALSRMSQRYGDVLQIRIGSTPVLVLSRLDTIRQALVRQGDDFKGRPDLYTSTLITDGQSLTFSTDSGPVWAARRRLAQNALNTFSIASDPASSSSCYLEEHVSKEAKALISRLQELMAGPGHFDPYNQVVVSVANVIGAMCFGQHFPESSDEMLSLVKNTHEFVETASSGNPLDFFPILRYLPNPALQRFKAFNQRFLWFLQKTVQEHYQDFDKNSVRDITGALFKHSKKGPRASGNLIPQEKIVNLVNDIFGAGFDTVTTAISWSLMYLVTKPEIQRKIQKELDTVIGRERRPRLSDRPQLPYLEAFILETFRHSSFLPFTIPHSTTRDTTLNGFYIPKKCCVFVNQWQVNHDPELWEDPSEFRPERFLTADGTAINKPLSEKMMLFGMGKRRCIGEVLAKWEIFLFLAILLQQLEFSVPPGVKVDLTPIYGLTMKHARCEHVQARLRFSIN
pIC50: −log10 of the molar value.
reported_endpoint: pIC50

Sample Cc1cccc2c1C(=O)NC1CNCCN21 (single isomer, unassigned; (+)) — what was its pIC50? < 4.40
